The measurements presented in this section are drawn from patent US20160310583A1.

Catalogue of MFI (solvent ratio) values
Target: T1, HLA-A*24:02 (human)
T1 construct: whole, on cells; MHC class I molecule, empty until peptide is added; detected with FITC anti-HLA-A24 antibody 17A10
Assay: MHC class I stabilization on T2-A24 cells, flow cytometry, 100 ug/mL peptide

{"binder": "TYQHSVSSLASV [FAM83B-derived peptide F305_12]", "measurement": "3.1 ratio to solvent"}

Exercise: Reported MFI (solvent ratio), binder GLLGGTHIDLL [FAM83B-derived peptide F114_11] : ____
Key: 1.1 ratio to solvent

Exercise: // next record VMYGSYSYMWSF [FAM83B-derived peptide F239_12]
Key: 4 ratio to solvent

Exercise: Do the same for VMDIFTDVDIF [FAM83B-derived peptide F153_11] please
Key: 2 ratio to solvent
